# Tested on: LOX IMVI melanoma
# testProtocol: NCI-60 one-dose screen, 48 h
# runConditions: 10 µM unless noted
# Experimental: Growth inhibition of the LOX IMVI human tumor cell line is measured as a screen for anti-cancer activity. Cells are grown in 96 well plates and exposed to the test compound for 48 hours. Compounds are tested at a single concentration, which is 10^-5 M for most compounds. The reported endpoint is percent growth (GI% or GIPRCNT), where numbers from 0 - 100% represent growth inhibition, and numbers from -100% - 0 represent cell death. For example, a value of 40 represents 60% growth inhibition. […]
This is part of a sample that, as a whole, favours compounds with a hit. Of some 83,000 tested, about 20% had one in any assay. The source made the active and inactive calls. How the source made its calls: active means growth percent below 10; inactive means the rest.
Give your call using only these classes: active, inactive

Worked set:
[[record]]
compound = "Clc1ccc2c(NCCCn3ccnc3)c3oc4ccc(Cl)cc4c3nc2c1"
assignedcategory = "inactive"

[[record]]
compound = "COc1ccc(-c2nc3ccc(-c4nnc(SCC(=O)Nc5ccc(C(C)=O)cc5)o4)cc3[nH]2)cc1"
assignedcategory = "inactive"

[[record]]
compound = "COc1ccc(-c2nn3c(-c4ccccc4F)nnc3s2)cc1"
assignedcategory = "inactive"


Hello, I am checking results. What call was entered for Fc1ccc(-c2cc3nc(C(Cl)Cl)nc(-c4ccc(Cl)cc4)n3n2)cc1 ?
inactive

Now the same for COc1ccccc1/C=C/C=N/NC1=NC2C(S1)N(C)C(=O)N2C (centres undefined)
inactive

Now the same for OC1CCc2c(-c3ccc4ncnc(N5CCc6cc(F)c(Cl)cc65)c4c3)cncc21 (centres undefined)
inactive

Now the same for NS(=O)(=O)c1cccc(Nc2nc(SCC(=O)c3ccc(Cl)cc3)nc3ccccc23)c1
inactive

Now the same for C[C@@H](Nc1c(C#N)cnc2ccc(-c3cnc(N)nc3)cc12)c1ccccc1
inactive

====

As shown below, each of these compounds has a reported growth value.
# Tested on: NCI-H226 lung
# testProtocol: NCI-60 one-dose screen, 48 h (100 = growth as untreated, 0 = no growth, -100 = all killed)
# runConditions: 10 µM unless noted
This is part of a sample that, as a whole, favours compounds with a hit. Of some 83,000 tested, about 20% had one in any assay.
Could you give me the number in %? Just the number is fine.

Use the examples below as a reference point.
[[record]]
compound = "CC(O)C(NC(=O)C1CCCN1C(=O)CNC(=O)C1CC(=O)NCC(=O)NC(Cc2c[nH]c3ccccc23)C(=O)NC(Cc2ccc(O)cc2)C(=O)NCC(=O)NC(CO)C(=O)NC(CCC(N)=O)C(=O)NC(Cc2c[nH]c3ccccc23)C(=O)N1)C(=O)NCC(=O)NC(CCC(N)=O)C(=O)NC(CCCNC(=N)N)C(=O)NC(CC(=O)O)C(=O)O (stereo not drawn)"
reportedresult = 107

[[record]]
compound = "CS(=O)(=O)Nc1ccc(-c2nn(-c3ccc(S(C)(=O)=O)cc3)cc2/C=C/C(=O)c2ccc(NC(=O)CO[N+](=O)[O-])cc2)cc1"
reportedresult = 89.3


Query: growth; subject: CCOC(=O)c1c(Nc2ccccc2)nn2c(N)c(C#N)c(-c3ccccc3)nc12
83.3

====

# System: TK-10 renal
# testProtocol: NCI-60 one-dose screen, 48 h (100 = growth as untreated, 0 = no growth, -100 = all killed)
# runConditions: 10 µM unless noted
# Protocol: Growth inhibition of the TK-10 human tumor cell line is measured as a screen for anti-cancer activity. Cells are grown in 96 well plates and exposed to the test compound for 48 hours. Compounds are tested at a single concentration, which is 10^-5 M for most compounds. The reported endpoint is percent growth (GI% or GIPRCNT), where numbers from 0 - 100% represent growth inhibition, and numbers from -100% - 0 represent cell death. For example, a value of 40 represents 60% growth inhibition. […]
Compounds without any hit were thinned out: in the full panel of roughly 83,000, 20% have a hit.
observationType: growth (%)
Could you give me the number in %? Just the number is fine.

Use the examples below as a reference point.
[[record]]
compound = "Cc1nc2cnc(N)c(C#Cc3cncc(C(=O)Nc4ccc(Cl)c(C(F)(F)F)c4)c3)c2nc1C"
testedtarget = "TK-10 renal"
measurementunit = "%"
reportedresult = 67.7

[[record]]
compound = "C#Cc1nc(C2=C(C)C(OC(=O)CCC(=O)O)CC2)cs1 (stereo not given)"
testedtarget = "TK-10 renal"
measurementunit = "%"
reportedresult = 157

[[record]]
compound = "Cn1c(SCC(=O)c2cccs2)nc2ccccc2c1=O"
testedtarget = "TK-10 renal"
measurementunit = "%"
reportedresult = 177

[[record]]
compound = "COc1ccc(CNS(=O)(=O)/N=C2\\NC(=O)NC2=C(Cl)Cl)cc1"
testedtarget = "TK-10 renal"
measurementunit = "%"
reportedresult = 41.6

[[record]]
compound = "COc1cc2cc(Oc3ccc(NC(=O)c4cccc(C(F)(F)F)c4)cc3)c(C)nc2cc1OCCN1CCCCC1"
testedtarget = "TK-10 renal"
measurementunit = "%"
reportedresult = 143

[[record]]
compound = "Nc1c(C(=O)Nc2ccc(Cl)cc2)sc2nc(-c3cnccn3)cc(-c3cccs3)c12"
testedtarget = "TK-10 renal"
measurementunit = "%"
reportedresult = 118


Kindly state the measured growth obtained for CN(C)c1ccc(/C=C2\Cc3c(F)ccc(Br)c3C2=O)cc1 with TK-10 renal.
140

Now the same for CN1CCc2c(sc3ncnc(N/N=C/c4ccc(Cl)c(Cl)c4)c23)C1
137

Now the same for O=C(N/N=C/c1ccc([N+](=O)[O-])o1)c1[nH]c2ccc(Br)cc2c1-c1ccccc1
78.7

Now the same for COc1ccc(-c2nc3ccc(-c4nnc(SCC(=O)Nc5ccc(C(=O)/C=C/c6ccccc6)cc5)o4)cc3[nH]2)cc1OC
133

Now the same for COc1cc(/C=C/C(=O)c2ccc(C(F)(F)F)cc2)ccc1Oc1nc(NCCO)nc(N2CCOCC2)n1
111

Now the same for NC(=O)c1c(NC(=O)c2ccc(C3CCCCC3)cc2)sc2c1CCC(=O)C2
16.7

Now the same for O=C(N/N=C/c1ccc(Cl)s1)c1[nH]c2ccc(Br)cc2c1-c1ccccc1
111

Now the same for C[C@@H]1CN(c2ccc3ncc(C#Cc4cncc(C(=O)Nc5ccc(CN6CCN(C)CC6)c(C(F)(F)F)c5)c4)n3n2)C[C@H](C)O1
-91.1

====

# System: OVCAR-4 ovarian
# testProtocol: NCI-60 one-dose screen, 48 h (100 = growth as untreated, 0 = no growth, -100 = all killed)
# runConditions: 10 µM unless noted
Compounds without any hit were thinned out: in the full panel of roughly 83,000, 20% have a hit.
As shown below, each of these molecules has a reported growth value.
Could you give me the number in %? Just the number is fine.

Use the examples below as a reference point.
[[record]]
molecule = "Cc1cccc2sc(/N=C(\\N)C(Br)Br)nc12"
observationtype = "growth"
measurementunit = "%"
reportedresult = 64.7

[[record]]
molecule = "Cn1c(SCC(=O)c2cccs2)nc2ccccc2c1=O"
observationtype = "growth"
measurementunit = "%"
reportedresult = 92.9

[[record]]
molecule = "COC(=O)C1CCCN(S(=O)(=O)/N=C2\\NC(=O)NC2=C(Cl)Cl)C1 (stereo unspecified)"
observationtype = "growth"
measurementunit = "%"
reportedresult = 119

[[record]]
molecule = "CN(C)S(=O)(=O)c1oc(-c2ccccc2)nc1C#N"
observationtype = "growth"
measurementunit = "%"
reportedresult = 99.7

[[record]]
molecule = "COc1cccc(COc2ccc(/C=C3/C(=O)Nc4cc(Cl)ccc43)cc2)c1"
observationtype = "growth"
measurementunit = "%"
reportedresult = 96.6


Query: growth; subject: Cc1cccc(/C=C/c2nn3c(-c4ccco4)nnc3s2)c1
98.7

Now the same for COC(=O)C1CN(S(=O)(=O)/N=C2\NC(=O)NC2=C(Cl)Cl)C1
123

====

# System: NCI-H226 lung
# testProtocol: NCI-60 one-dose screen, 48 h (100 = growth as untreated, 0 = no growth, -100 = all killed)
# runConditions: 10 µM unless noted
This is part of a sample that, as a whole, favours compounds with a hit. Of some 83,000 tested, about 20% had one in any assay.
As shown below, each of these compounds has a reported growth value.
Could you give me the number in %? Just the number is fine.

[[record]]
givensmiles = "Clc1ccc2c(NCCCN3CCOCC3)c3oc4ccccc4c3nc2c1"
reportedresult = 45.3

[[record]]
givensmiles = "O=C(O)CCCCCN1C(=O)/C(=C/c2ccc(O)c(O)c2)SC1=S"
reportedresult = 106

[[record]]
givensmiles = "O=C(CSc1nnc(-c2ccc3nc(-c4ccc(Cl)cc4)[nH]c3c2)o1)Nc1ccc(C(=O)/C=C/c2ccc(Cl)cc2)cc1"
reportedresult = 86

[[record]]
givensmiles = "CN1CCN(Cc2ccc(NC(=O)c3cncc(C#Cc4cnc5[nH]ncc5c4)c3)cc2C(F)(F)F)CC1"
reportedresult = 20.4

[[record]]
givensmiles = "[Cl][Ru].c1ccc(-c2cccc(-c3ccccn3)n2)nc1.c1ccc(-c2ccnc3c2ccc2c(-c4ccccc4)ccnc23)cc1"
reportedresult = 80.1

[[record]]
givensmiles = "COc1ccc(-c2nc3ccc(-c4nnc(SCC(=O)Nc5ccc(C(=O)/C=C/c6ccc(Cl)cc6)cc5)o4)cc3[nH]2)cc1OC"
reportedresult = 98.5

[[record]]
givensmiles = "CC(=O)Nc1cc(F)cc(-c2ccc3[nH]cc(-c4ccccc4)c3n2)c1"
reportedresult = 30.9

[[record]]
givensmiles = "Cn1ccnc1C(=O)/C=C/c1ccc(NC(=O)Nc2ccccc2)cc1"
reportedresult = 35.9


Query: growth; subject: Nc1cc(-c2c[nH]c3ccc(F)cc23)nc2cc(-c3c[nH]c4ccc(F)cc34)nn12
97.4
